# measurementTarget: human Unc5B-His (two N-terminal Ig-like domains of Unc5B, amino acid M1 to amino acid V243, C-terminal Histidine tag) (human) (UniProt Q8IZJ1)
# protocol: SPR (ProteOn XPR36), antibody immobilised, human Unc5B-His as analyte
experimentalReadout: pKd
Notebook: values listed as pKd are -log10 of the concentration (mol/L).

YW 83.7 (antibody, part only; not given: constant regions, part only) heavy chain, part: EVQLVESGGGLVQPGGSLRLSCAASGFTFTGSSIHWVRQAPKGLEWVGWITPNGGYTNYADSVKGRFTISADTSKNTAYLQMSLRAEDTAVYYCARQSWVLRGWAMDYWGQGTLVTVSS light chain: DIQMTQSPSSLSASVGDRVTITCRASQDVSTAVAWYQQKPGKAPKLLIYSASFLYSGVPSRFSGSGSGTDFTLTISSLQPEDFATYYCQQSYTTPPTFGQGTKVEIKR | 8.39

Input: What pKd value was documented for this binder, YW 83.4 (antibody, part only; not given: constant regions, part only) heavy chain, part: EVQLVESGGGLVQPGGSLRLSCAASGFTFTNYDIHWVRQAPKGLEWVGWISPSGGYTNYADSVKGRFTISADTSKNTAYLQMSLRAEDTAVYYCARQLWAVRGWVMDYWGQGTLVTVSS light chain: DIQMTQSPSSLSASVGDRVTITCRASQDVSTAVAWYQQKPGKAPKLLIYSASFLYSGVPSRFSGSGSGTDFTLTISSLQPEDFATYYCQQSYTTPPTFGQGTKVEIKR ?
Output: 8.54

Input: Form field: reported pKd of YW 88.7 (antibody, part only; not given: constant regions, part only) heavy chain, part: EVQLVESGGGLVQPGGSLRLSCAASGFTFSDNWISWVRQAPKGLEWVGGIYPAGGYTYYADSVKGRFTISADTSKNTAYLQMSLRAEDTAVYYCAHDIHTRIAVMDYWGQGTLVTVSS light chain: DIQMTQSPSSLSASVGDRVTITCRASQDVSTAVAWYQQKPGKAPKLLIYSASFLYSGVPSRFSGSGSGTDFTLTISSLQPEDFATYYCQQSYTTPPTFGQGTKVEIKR
Output: 7.70

Input: For the binder YW 88.64 (antibody, part only; not given: constant regions, part only) heavy chain, part: EVQLVESGGGLVQPGGSLRLSCAASGFTFSNSGISWVRQAPKGLEWVGYIYPDNGSTNYADSVKGRFTISADTSKNTAYLQMSLRAEDTAVYYCARGVWWFDYWGQGTLVTVSS light chain: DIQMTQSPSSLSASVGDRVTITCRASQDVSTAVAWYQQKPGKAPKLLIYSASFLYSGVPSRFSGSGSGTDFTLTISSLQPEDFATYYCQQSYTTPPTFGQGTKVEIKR , what pKd is on record?
Output: 7.08
